- target_under_test: UniProt:O00519
- Sequence (O00519 whole entry): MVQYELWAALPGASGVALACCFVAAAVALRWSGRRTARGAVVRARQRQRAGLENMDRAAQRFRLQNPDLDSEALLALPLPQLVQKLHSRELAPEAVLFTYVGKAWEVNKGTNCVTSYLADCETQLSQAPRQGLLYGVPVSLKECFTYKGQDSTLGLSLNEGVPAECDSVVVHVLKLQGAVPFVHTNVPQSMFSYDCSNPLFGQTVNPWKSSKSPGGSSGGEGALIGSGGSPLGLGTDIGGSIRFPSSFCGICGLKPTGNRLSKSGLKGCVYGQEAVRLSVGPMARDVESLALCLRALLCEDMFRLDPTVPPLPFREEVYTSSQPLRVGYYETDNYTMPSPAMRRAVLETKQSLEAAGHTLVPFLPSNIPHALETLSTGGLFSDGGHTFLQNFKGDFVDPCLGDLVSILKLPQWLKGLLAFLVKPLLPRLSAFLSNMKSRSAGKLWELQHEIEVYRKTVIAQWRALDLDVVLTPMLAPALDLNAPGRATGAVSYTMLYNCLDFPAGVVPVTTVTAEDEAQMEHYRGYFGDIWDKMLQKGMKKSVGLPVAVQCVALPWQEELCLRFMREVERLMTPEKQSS
- assay_method_text: FAAH enzyme inhibition assay (Cayman kit, AMC-arachidonoyl amide)
- Format: biochemical
- condition_set: Table II; average of at least two experiments; read-out: IC50 (μM) ± SE (hFAAH)
measured_parameter: IC50 (µM)

[
  {
    "molecule": "CCN(CCC(=O)O)C(=S)SSC(=S)N(CC)CCC(=O)O",
    "meas_value": 12.8
  },
  {
    "molecule": "CCN(CCO)C(=S)SSC(=S)N(CC)CCO",
    "meas_value": 25.4
  },
  {
    "molecule": "O=C(Oc1ccc([N+](=O)[O-])cc1)N1CCN(Cc2cccc(Oc3ccccc3)c2)CC1 [JZL-195, reference compound]",
    "meas_value": 0.04
  },
  {
    "molecule": "CCOC(=O)CCN(CC)C(=S)SSC(=S)N(CC)CCC(=O)OCC",
    "meas_value": 10.1
  }
]

###

- target_under_test: ALDH1a1 (Homo sapiens (Human), UniProt P00352)
- Sequence (P00352 whole entry): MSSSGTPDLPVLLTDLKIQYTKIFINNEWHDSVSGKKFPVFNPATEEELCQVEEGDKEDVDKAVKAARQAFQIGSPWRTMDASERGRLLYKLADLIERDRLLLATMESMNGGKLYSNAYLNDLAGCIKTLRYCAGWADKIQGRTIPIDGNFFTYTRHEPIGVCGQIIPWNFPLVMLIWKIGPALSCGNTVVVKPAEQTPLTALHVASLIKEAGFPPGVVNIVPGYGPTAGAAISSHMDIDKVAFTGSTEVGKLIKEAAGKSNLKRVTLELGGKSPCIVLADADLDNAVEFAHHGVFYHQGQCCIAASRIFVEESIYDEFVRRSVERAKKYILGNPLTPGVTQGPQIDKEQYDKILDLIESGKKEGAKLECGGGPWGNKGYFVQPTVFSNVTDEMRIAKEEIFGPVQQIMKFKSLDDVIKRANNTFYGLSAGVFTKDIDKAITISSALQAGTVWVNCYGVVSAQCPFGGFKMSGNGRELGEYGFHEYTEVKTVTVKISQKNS
- assay_method_text: ALDH assay (diaphorase/resazurin), ALDH1a1 inhibition
- Type: biochemical
- condition_set: Table IA; mean of at least two independent experiments; read-out: IC50 (μM) ± SE (ALDH1a1)
Listed here: items and their measured IC50.
measured_parameter: IC50 (µM)

[
  {
    "molecule": "CC(C)N(C(=S)SSC(=S)N(C(C)C)C(C)C)C(C)C [Compound I-2h, reference compound]",
    "value_comparator": "=",
    "meas_value": 2.85
  },
  {
    "molecule": "CC(C)CN(CC(C)C)C(=S)SSC(=S)N(CC(C)C)CC(C)C [Compound I-2j, reference compound]",
    "value_comparator": ">",
    "meas_value": 100
  },
  {
    "molecule": "CCN(Cc1ccc(C(=O)O)cc1)C(=S)SSC(=S)N(CC)Cc1ccc(C(=O)O)cc1 [Compound I-2d]",
    "value_comparator": "=",
    "meas_value": 2.96
  }
]
